- Tested on: EKVX NSCLC
- Method: NCI tumour cell line growth inhibition, 48 h
Quantity Kind: TGI (µM)
One number for each entry, in µM.

# example entries with known answers
# Molecule, Test Target, Readout Unit, Reported Measurement
rows = [
    ("CCN(CC)CCCC(C)NC(=O)c1ccc2c(c1)C(=O)c1ccccc1C2=O (stereo not given)", "EKVX NSCLC", "µM", 55.8),
    ("Clc1nc(Cl)c(CBr)c(Cl)n1", "EKVX NSCLC", "µM", 48.9),
    ("COc1cc(Nc2nc3ccc(C(F)(F)F)cc3nc2-c2ccccc2)cc(OC)c1OC", "EKVX NSCLC", "µM", 79.7),
]

Could you report TGI for every entry in the following list?
1. CCNCCCn1c2c(c3ccc([N+](=O)[O-])cc3c1=O)C(=O)c1cc(OC)cnc1-2
2. COC1=C(Br)C(=O)C2=C(C1=O)C1C3=C(C(=O)C=CC3=O)C2c2ccccc21 (stereo not given)
3. NC1=Nc2cc(OCCCN3Cc4ccccc4C3)c(OCC3CC3)cc2C12CCCC2

Result:
[1.27, 22.2, 11.8]

###

Would you kindly list TGI for each of these molecules?
- System: MCF7 breast
- Method: NCI tumour cell line growth inhibition, 48 h

# example entries with known answers
# Molecule, TGI
data = [
    ("c1ccc2c(c1)CC1COc3ccccc3C1O2 (stereo not given)", "> 100 µM"),
    ("COC1=C(Br)C(=O)C2=C(C1=O)C1C3=C(C(=O)C=CC3=O)C2c2ccccc21 (stereo not given)", "> 100 µM"),
    ("CC(C)C1CC[C@H](C)C[C@@H]1OC(=O)C(C(=O)O[C@H]1C[C@@H](C)CCC1C(C)C)C(O)[C@@H]1OC(C)(C)O[C@H]1C1COC(C)(C)O1 (stereo not given in full)", "22.6 µM"),
    ("c1ccc(-c2cc(-c3cccs3)c(-c3cccs3)o2)cc1", "> 100 µM"),
]

Next molecule, please.
Task: Give the reported TGI for this molecule. O=C(CC1C=CCS1(=O)=O)NCc1ccccc1 (stereo not given)
Result: > 100 µM

###

Would you kindly list TGI for each of these compounds?
- System: RXF 393 renal
- Method: NCI tumour cell line growth inhibition, 48 h
*1 amine or outer side, *2 acyl side, *3 side chain or, on linkers, in order; H or OH if unused. Where a SMILES comes first, the peptide text is derived from it. [ ]: non-standard residue; d: D form. ξ: configuration not given here. X21 = CC[C@@H](C)C(N[*:1])C(=O)[*:2]; ξR = N=C(N)NCCCC(N)C(=O)O; ξI = CCC(C)C(N)C(=O)O; ξL = CC(C)CC(N)C(=O)O; ξK = NCCCCC(N)C(=O)O; ξV = CC(C)C(N)C(=O)O; ξA = CC(N)C(=O)O
Numbers only, in µM.

# example entries with known answers
# Compound, TGI, µM
measured = [
    ("COc1ccccc1NC(=O)O/N=C(/Cl)C(C)C", 28.4),
    ("Clc1ncc(Cl)c(Cl)n1", 5.46),
    ("C=C1C(=O)OC2CC(C)C3C=CC(=O)C3CC12 (stereo not drawn)", 3.03),
]

Could you report TGI for every entry in the following list?
1. CC(=O)N1c2ccccc2C(C)C1c1[nH]c2ccccc2c1C (stereo not drawn)
2. C=C1C(=O)O[C@H]2[C@H]1CC/C(COC(=O)c1ccccc1)=C\CC[C@@]1(C)O[C@@H]21
3. N#Cc1ccc2c(c1)C(=O)c1c-2n(CCCN)c(=O)c2cc([N+](=O)[O-])ccc12
4. OCc1ccc(N(CCN2CCCC2)Cc2ccc(F)cc2)cc1Cl

Result:
1. 28.4
2. 2.58
3. 2.22
4. 67.1

Could you report TGI for every entry in the following list?
1. CC(=O)OCC1=C(C)C[C@H]([C@@H](COC(C)=O)C2CCC3C4C[C@H]5O[C@]56CC=CC(=O)[C@]6(C)C4CC[C@@]32C)OC1=O (stereo partly drawn)
2. CCC(C)C1NC(=O)C(CC(C)C)NC(=O)C(C)NC(=O)C(C(C)C)NC(=O)C(CCCCN)NC(=O)C(CC(C)C)NC(=O)C(C(C)C)NC(=O)[C@H](C)NC(=O)C(C(C)CC)NC(=O)C(CCCN=C(N)N)NC(=O)C(CCCCN)NC(=O)C(CCCN=C(N)N)NC(=O)C(CCCCN)NC(=O)C([C@H](C)CC)NC(=O)C(CCCCN)NC1=O (stereo partly drawn) (cyclo(A[ξV][ξL][ξK][ξV][ξA][ξL][ξI][ξK][X21][ξK][ξR][ξK][ξR][ξI]))
3. CCOC(=O)C(C(=O)OCC)=C1NC2(c3ccccc3Nc3ccc(C)cc32)C(C(=O)OC)S1 (stereo not drawn)

Result:
1.12
2.96
70.6
